Listing: koff of selected binders
Molecular target: T1, cyno FcRn/b2M (cyno, UniProt Q8SPV9 24-297; Q8SPW0 21-119, biotinylated)
T1 construct: bought recombinant biotinylated protein (Immunitrack ITF05 or ACRO FCM-C82W5); also called cFcRn; cFcRn/cb2M
T1 sequence (Q8SPV9 24-297 limits assumed, chain 1 of 2): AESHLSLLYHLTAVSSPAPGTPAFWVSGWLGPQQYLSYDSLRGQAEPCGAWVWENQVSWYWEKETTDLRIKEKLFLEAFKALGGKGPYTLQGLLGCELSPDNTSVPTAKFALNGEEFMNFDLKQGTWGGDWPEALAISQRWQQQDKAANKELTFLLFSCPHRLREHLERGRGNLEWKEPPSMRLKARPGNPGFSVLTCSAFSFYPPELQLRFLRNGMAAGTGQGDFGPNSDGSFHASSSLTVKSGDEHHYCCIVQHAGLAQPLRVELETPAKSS
T1 sequence (Q8SPW0 21-119 limits assumed, chain 2 of 2): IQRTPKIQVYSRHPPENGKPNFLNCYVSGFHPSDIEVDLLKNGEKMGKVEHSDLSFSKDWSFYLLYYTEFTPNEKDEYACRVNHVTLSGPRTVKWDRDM
Assay: SPR pH 7.4;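 further: surface plasmon resonance kinetics, periplasmic extracts diluted 1:10 flowed over immobilized target at 25 °C, 120 s association then 600–3600 s dissociation, buffer with 150 mM NaCl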
Write the number in s⁻¹ without appending the unit.

Recorded koff, per entry:
>  <binder>
T0263018B11 A33Q (VHH, name in Kabat numbering, FLAG3-His6 tagged) VHH: EVQLVESGGGVVQPGGSLRLSCAASGFTFSSYQMYWVRQAPGKGLEWVSAISSGGGSTDYADSVKGRFTISRDNSKNTLYLQMNSLRPEDTALYYCAADTLYTSLTWYSYWGQGTLVTVSS

>  <koff [s⁻¹]>
0.13

$$$$
>  <binder>
T0263018B11 D58A (VHH, name in Kabat numbering, FLAG3-His6 tagged) VHH: EVQLVESGGGVVQPGGSLRLSCAASGFTFSSYAMYWVRQAPGKGLEWVSAISSGGGSTAYADSVKGRFTISRDNSKNTLYLQMNSLRPEDTALYYCAADTLYTSLTWYSYWGQGTLVTVSS

>  <koff [s⁻¹]>
0.036

$$$$
>  <binder>
T0263018B11 S52T (VHH, name in Kabat numbering, FLAG3-His6 tagged) VHH: EVQLVESGGGVVQPGGSLRLSCAASGFTFSSYAMYWVRQAPGKGLEWVSAITSGGGSTDYADSVKGRFTISRDNSKNTLYLQMNSLRPEDTALYYCAADTLYTSLTWYSYWGQGTLVTVSS

>  <koff [s⁻¹]>
0.042

$$$$
>  <binder>
T0263018B11 T100bE (VHH, name in Kabat numbering, FLAG3-His6 tagged) VHH: EVQLVESGGGVVQPGGSLRLSCAASGFTFSSYAMYWVRQAPGKGLEWVSAISSGGGSTDYADSVKGRFTISRDNSKNTLYLQMNSLRPEDTALYYCAADTLYTSLEWYSYWGQGTLVTVSS

>  <koff [s⁻¹]>
0.025

$$$$
>  <binder>
T0263018B11 T28V (VHH, name in Kabat numbering, FLAG3-His6 tagged) VHH: EVQLVESGGGVVQPGGSLRLSCAASGFVFSSYAMYWVRQAPGKGLEWVSAISSGGGSTDYADSVKGRFTISRDNSKNTLYLQMNSLRPEDTALYYCAADTLYTSLTWYSYWGQGTLVTVSS

>  <koff [s⁻¹]>
0.092

$$$$

Here's the next entry for you.
*Q* Request the reported koff associated with T0263018B11 W100cG (VHH, name in Kabat numbering, FLAG3-His6 tagged) VHH: EVQLVESGGGVVQPGGSLRLSCAASGFTFSSYAMYWVRQAPGKGLEWVSAISSGGGSTDYADSVKGRFTISRDNSKNTLYLQMNSLRPEDTALYYCAADTLYTSLTGYSYWGQGTLVTVSS
*A* 0.38
